# System: SNU387-TgSALL4BBHi
# Construct: SNU-387 overexpressing SALL4B
# testProtocol: cells
# Design: species or system SNU-387, SNU-398 and SNU-387 isogenic lines; CellTiter-Glo luminescence cell viability, dose-response EC50
# testSettings: 72 h
metric: EC50

Can you look up EC50 on SNU387-TgSALL4BBHi for Nc1ccc(F)cc1NC(=O)c1cccnc1Nc1ccc(F)cc1 [SH61] ? > 10 µM

====

# assayedTarget: hERG potassium channel (Homo sapiens)
# Sequence (Q12809 whole entry): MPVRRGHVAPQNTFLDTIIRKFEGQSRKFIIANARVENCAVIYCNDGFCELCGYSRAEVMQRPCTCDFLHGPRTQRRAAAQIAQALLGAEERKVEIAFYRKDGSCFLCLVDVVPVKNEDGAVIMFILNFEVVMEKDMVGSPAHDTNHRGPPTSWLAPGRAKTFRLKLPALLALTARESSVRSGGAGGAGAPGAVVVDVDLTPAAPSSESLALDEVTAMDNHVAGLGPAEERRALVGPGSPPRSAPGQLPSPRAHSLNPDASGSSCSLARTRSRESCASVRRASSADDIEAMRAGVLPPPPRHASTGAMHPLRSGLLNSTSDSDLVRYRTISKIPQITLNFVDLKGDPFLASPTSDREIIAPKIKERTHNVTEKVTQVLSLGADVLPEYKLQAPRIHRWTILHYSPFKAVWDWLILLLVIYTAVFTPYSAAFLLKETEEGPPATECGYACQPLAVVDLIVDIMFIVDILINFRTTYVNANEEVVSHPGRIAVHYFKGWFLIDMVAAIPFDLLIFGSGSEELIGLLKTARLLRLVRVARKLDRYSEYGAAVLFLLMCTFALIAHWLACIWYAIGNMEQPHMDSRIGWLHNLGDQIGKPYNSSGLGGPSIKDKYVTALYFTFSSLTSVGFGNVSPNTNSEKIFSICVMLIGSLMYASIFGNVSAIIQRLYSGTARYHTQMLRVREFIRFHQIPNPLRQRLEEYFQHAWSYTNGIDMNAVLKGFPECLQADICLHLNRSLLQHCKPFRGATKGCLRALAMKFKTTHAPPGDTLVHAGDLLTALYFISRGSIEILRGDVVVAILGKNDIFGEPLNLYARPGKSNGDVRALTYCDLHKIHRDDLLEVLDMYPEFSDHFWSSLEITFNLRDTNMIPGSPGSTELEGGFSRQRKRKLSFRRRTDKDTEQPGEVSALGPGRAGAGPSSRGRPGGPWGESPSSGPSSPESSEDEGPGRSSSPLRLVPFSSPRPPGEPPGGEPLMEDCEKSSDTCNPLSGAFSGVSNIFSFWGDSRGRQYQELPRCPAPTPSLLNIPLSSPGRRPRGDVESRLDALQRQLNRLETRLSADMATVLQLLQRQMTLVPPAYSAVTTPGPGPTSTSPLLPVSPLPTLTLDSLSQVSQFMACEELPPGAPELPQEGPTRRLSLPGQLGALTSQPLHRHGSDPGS
# testProtocol: hERG channel block concentration-response
metric: IC50 (µM)
Return type: number; implicit unit µM.

IC50 of COc1cc(Nc2ncccc2/C=C/C(=O)Nc2ccc(Cl)cc2N)cc(OC)c1OC [SH6] on hERG potassium channel (Homo sapiens)? 22.2

The origin of these recorded values is paper PMC12163085.
